Test system: HT29 colon
Assay Protocol: NCI tumour cell line growth inhibition, 48 h
Metric Name: TGI (µM)

- COC(=O)[C@]12CC[C@@H](C)[C@H](C)[C@@H]1C1=CC[C@@H]3[C@@]4(C)C[C@@H](OC(=O)/C=C/c5ccccc5)[C@H](O)[C@@](C)(CO)[C@@H]4[C@H](O)C[C@@]3(C)[C@]1(C)CC2: 3.81
- COc1cc(-c2nc3sc(C)cn3c2/C=C2\C(=O)Nc3ccccc32)c(Br)c(OC)c1OC: 55.5
- CC(=O)Nc1ccc(-c2nnc(SCC(=O)Nc3cccc(Cl)c3)o2)cc1: 31
- COc1ccc(NC2=C(I)C(=O)c3ncccc3C2=O)cc1: 10.2
- COc1ccc2c(c1)-c1c(c3cc(OC)ccc3n1CCCN(C)C)CC2: 13.9
- Cn1c2c(c3ccccc31)CCN(CCCCN1CCN(c3ccccc3)CC1)C2=O: 25.4
- Clc1cc(Cl)c(OCCCCCCN2CCNCC2)c(Cl)c1: 4.3
- C=CC(=O)NC(N)=NC#N: 372
- CC(C)[C@@](O)(c1ccc2cc(OC(F)F)c(OC(F)F)cc2c1)c1cn[nH]n1: 41.6

====

Tested on: HL-60(TB) leukemia
Assay Protocol: NCI tumour cell line growth inhibition, 48 h
Where a SMILES comes first, the peptide text is derived from it.
Metric Name: TGI

• CN(C)CCC(CCN(C)C)=NO = > 100 µM
• O=C(c1ccccc1Cl)n1oc2ccccc2c1=O = 51 µM
• CC1C2CC(CC2(C)O)C1(C)C (configuration not stated) = > 100 µM
• NC(CCOCCP(=O)(O)CCC1C=CC=CC1)C(=O)O (configuration not stated) = > 100 µM
• N#CC(C#N)=C/C=C/c1c(Cl)cccc1Cl = 4.04 µM
• Cc1ccc2cccc(OC(=O)Nc3cccc(C(F)(F)F)c3)c2n1 = 38.4 µM
• C=C(C)[C@@H]1CCC2=C[C@H](C/C(C)=C\C3=CC(C)=C(O3)[C@H]1O)OC2=O = > 100 µM
• O=C(Oc1c(Cl)cc(C2(c3cc(Cl)c(OC(=O)c4ccccc4)c(Cl)c3)CCCCC2)cc1Cl)c1ccccc1 = 23.5 µM
• OCC[N+]12CCCN1CCC2 = > 100 µM
• CC1(C)N=C(N)N=C(N)N1c1ccc(OCCCNC(=O)Nc2cccc(S(=O)(=O)F)c2)c(Cl)c1 = > 100 µM
• Cc1c(/C=N/NC(=S)Nc2ccc(Cl)cc2)c(=O)n(-c2ccccc2)n1C = > 100 µM
• CCOC(=O)Cc1nnc2n(-c3ccccc3)c(=O)c3ccccc3n12 = > 100 µM
• C[C@@H](NS(=O)(=O)c1ccc(NC(=O)c2ccccc2)cc1)C(=O)O = > 100 µM
• Cc1cc(=O)oc2c(CNC(CO)C(=O)O)c(O)ccc12 (configuration not stated) = > 100 µM
• N/N=C(\c1nc2ccc([N+](=O)[O-])cc2[nH]c1=O)C(O)c1ccc(Cl)c(Cl)c1 (configuration not stated) = > 100 µM
• O=C(NCCCNCCN1C(=O)c2cccc3cc([N+](=O)[O-])cc(c23)C1=O)c1cc(-c2ccccc2)nc2ccccc12 = 5.76 µM
• COC(=O)[C@@]1(C)C(=O)CC[C@@H]1C=O = > 100 µM
• O=C(NCCCl)Nc1cccnc1 = > 100 µM
• CN(CC(=O)O)Cc1c(O)c(Cl)cc(Cl)c1Cl = 44.6 µM
• NC(=O)C1CCCN1C(=O)C(N)Cc1ccccc1 (stereo not drawn) (H-Phe-Pro-NH2; configuration not given here) = > 100 µM
• COC1=C(C)C(=O)c2c(c(CCCl)c3n2CCC3OC(C)=O)C1=O (configuration not stated) = 33.6 µM
• Cc1ccc(/C=C(\NC(=O)c2ccccc2)c2nc3ccccc3[nH]2)cc1 = 56.8 µM
